# Tested on: Bacillus subtilis
# protocol notes: Antibacterial activity against Bacillus subtilis ATCC 6051 after 24 hrs by two-fold broth microdilution method
# Format: functional
# condition: ATCC 6051, 24 h
recorded endpoint: MIC

1) Brc1ccc(-c2nc3sc(-c4ccccc4Br)nn3c2/C=N/C2CCCCC2)cc1
200 µg/mL
2) Cc1ccc(C(=O)/C=C/c2c(-c3ccc(Br)cc3)nc3sc(-c4ccc(Cl)cc4)nn23)cc1
> 200 µg/mL
3) Brc1ccc(-c2nc3sc(-c4ccccc4Br)nn3c2/C=N/C2CC2)cc1
200 µg/mL
4) Brc1ccc(-c2nc3sc(-c4ccc(I)cc4)nn3c2/C=N/C2CCCCC2)cc1
200 µg/mL
5) Cc1ccc(C(=O)/C=C/c2c(-c3ccc(Br)cc3)nc3sc(-c4ccccc4)nn23)cc1
> 200 µg/mL
6) O=C(/C=C/c1c(-c2ccc(Br)cc2)nc2sc(-c3ccccc3Br)nn12)c1cccs1
> 200 µg/mL
7) O=C(/C=C/c1c(-c2ccc(Br)cc2)nc2sc(-c3ccccc3Cl)nn12)c1ccccc1
> 200 µg/mL
8) CC1(C)S[C@@H]2[C@H](NC(=O)[C@H](N)c3ccc(O)cc3)C(=O)N2[C@H]1C(=O)O
< 0.39 µg/mL
9) O=C(/C=C/c1c(-c2ccc(Br)cc2)nc2sc(-c3ccccc3)nn12)c1cccs1
> 200 µg/mL
10) O=C(/C=C/c1c(-c2ccc(Br)cc2)nc2sc(-c3ccccc3)nn12)c1ccccc1
> 200 µg/mL
11) O=C(/C=C/c1c(-c2ccc(Br)cc2)nc2sc(-c3ccc(Cl)cc3)nn12)c1ccccc1
> 200 µg/mL
12) COc1ccc(-c2nn3c(/C=C/C(=O)c4cccs4)c(-c4ccc(Br)cc4)nc3s2)cc1
> 200 µg/mL
13) Cc1ccc(C(=O)/C=C/c2c(-c3ccc(Br)cc3)nc3sc(-c4ccccc4Br)nn23)cc1
> 200 µg/mL
14) Clc1ccc(-c2nn3c(/C=N/C4CC4)c(-c4ccc(Br)cc4)nc3s2)cc1
200 µg/mL
15) Clc1ccc(-c2nn3c(/C=N/C4CCCCC4)c(-c4ccc(Br)cc4)nc3s2)cc1
200 µg/mL
16) O=C(/C=C/c1c(-c2ccc(Br)cc2)nc2sc(-c3ccc(Cl)cc3)nn12)c1cccs1
> 200 µg/mL
17) COc1ccc(-c2nn3c(/C=C/C(=O)c4ccc(C)cc4)c(-c4ccc(Br)cc4)nc3s2)cc1
> 200 µg/mL
18) COc1ccc(-c2nn3c(/C=C/C(=O)c4ccccc4)c(-c4ccc(Br)cc4)nc3s2)cc1
> 200 µg/mL
19) Brc1ccc(-c2nc3sc(-c4ccccc4)nn3c2/C=N/C2CC2)cc1
200 µg/mL

====

# Test system: Pseudomonas aeruginosa
# protocol notes: Antibacterial activity against Pseudomonas aeruginosa ATCC 27853 after 24 hrs by two-fold broth microdilution method
# Format: functional
# condition: ATCC 27853, 24 h
In this section we review reported MIC values for a set of molecules.
recorded endpoint: MIC (µg/mL)

1. Brc1ccc(-c2nc3sc(-c4ccccc4)nn3c2/C=N/C2CC2)cc1
50
2. Clc1ccccc1-c1nn2c(/C=N/C3CCCCC3)c(-c3ccc(Br)cc3)nc2s1
50
3. Brc1ccc(-c2nc3sc(-c4ccc(I)cc4)nn3c2/C=N/C2CCCCC2)cc1
50
4. Brc1ccc(-c2nc3sc(-c4ccccc4Br)nn3c2/C=N/C2CCCCC2)cc1
50
5. Brc1ccc(-c2nc3sc(-c4ccc(I)cc4)nn3c2/C=N/C2CC2)cc1
50
6. Clc1ccc(-c2nn3c(/C=N/C4CC4)c(-c4ccc(Br)cc4)nc3s2)cc1
50
7. Brc1ccc(-c2nc3sc(-c4ccccc4Br)nn3c2/C=N/C2CC2)cc1
50

====

# Tested on: Candida albicans
# protocol notes: Antifungal activity against Candida albicans clinical isolate after 24 hrs by two-fold broth microdilution method
# Assay type: functional
In this section we review reported MIC values for a set of molecules.
recorded endpoint: MIC

1) C[C@@H]1[C@H](O)[C@@H](C)/C=C/C=C/C=C/C=C/C=C/C=C/C=C/[C@H](O[C@@H]2O[C@H](C)[C@@H](O)[C@H](N)[C@@H]2O)C[C@@H]2O[C@](O)(C[C@@H](O)C[C@@H](O)[C@H](O)CC[C@@H](O)C[C@@H](O)CC(=O)O[C@H]1C)C[C@H](O)[C@H]2C(=O)O
25 mg/L
2) O=C(/C=C/c1c(-c2ccc(Br)cc2)nc2sc(-c3ccccc3Br)nn12)c1ccccc1
> 200 mg/L
3) Brc1ccc(-c2nc3sc(-c4ccccc4Br)nn3c2/C=N/C2CC2)cc1
50 mg/L
4) O=C(/C=C/c1c(-c2ccc(Br)cc2)nc2sc(-c3ccccc3Br)nn12)c1cccs1
> 200 mg/L
5) O=C(/C=C/c1c(-c2ccc(Br)cc2)nc2sc(-c3ccccc3Cl)nn12)c1cccs1
> 200 mg/L
6) Brc1ccc(-c2nc3sc(-c4ccccc4)nn3c2/C=N/C2CC2)cc1
50 mg/L
7) O=C(/C=C/c1c(-c2ccc(Br)cc2)nc2sc(-c3ccccc3)nn12)c1cccs1
> 200 mg/L
8) O=C(/C=C/c1c(-c2ccc(Br)cc2)nc2sc(-c3ccccc3)nn12)c1ccccc1
> 200 mg/L
9) Clc1ccccc1-c1nn2c(/C=N/C3CCCCC3)c(-c3ccc(Br)cc3)nc2s1
25 mg/L
10) Clc1ccc(-c2nn3c(/C=N/C4CCCCC4)c(-c4ccc(Br)cc4)nc3s2)cc1
50 mg/L
11) O=C(/C=C/c1c(-c2ccc(Br)cc2)nc2sc(-c3ccc(Cl)cc3)nn12)c1cccs1
> 200 mg/L
12) Clc1ccc(-c2nn3c(/C=N/C4CC4)c(-c4ccc(Br)cc4)nc3s2)cc1
50 mg/L
13) Cc1ccc(C(=O)/C=C/c2c(-c3ccc(Br)cc3)nc3sc(-c4ccccc4Br)nn23)cc1
> 200 mg/L
14) Brc1ccc(-c2nc3sc(-c4ccc(I)cc4)nn3c2/C=N/C2CC2)cc1
50 mg/L
15) Cc1ccc(C(=O)/C=C/c2c(-c3ccc(Br)cc3)nc3sc(-c4ccc(Cl)cc4)nn23)cc1
> 200 mg/L
16) Brc1ccc(-c2nc3sc(-c4ccc(I)cc4)nn3c2/C=N/C2CCCCC2)cc1
50 mg/L
17) COc1ccc(-c2nn3c(/C=C/C(=O)c4cccs4)c(-c4ccc(Br)cc4)nc3s2)cc1
> 200 mg/L
18) Brc1ccc(-c2nc3sc(-c4ccccc4Br)nn3c2/C=N/C2CCCCC2)cc1
50 mg/L
19) Cc1ccc(C(=O)/C=C/c2c(-c3ccc(Br)cc3)nc3sc(-c4ccccc4)nn23)cc1
> 200 mg/L
20) O=C(/C=C/c1c(-c2ccc(Br)cc2)nc2sc(-c3ccc(Cl)cc3)nn12)c1ccccc1
> 200 mg/L
21) COc1ccc(-c2nn3c(/C=C/C(=O)c4ccccc4)c(-c4ccc(Br)cc4)nc3s2)cc1
> 200 mg/L
22) O=C(/C=C/c1c(-c2ccc(Br)cc2)nc2sc(-c3ccccc3Cl)nn12)c1ccccc1
> 200 mg/L
23) COc1ccc(-c2nn3c(/C=N/C4CC4)c(-c4ccc(Br)cc4)nc3s2)cc1
50 mg/L
24) COc1ccc(-c2nn3c(/C=C/C(=O)c4ccc(C)cc4)c(-c4ccc(Br)cc4)nc3s2)cc1
> 200 mg/L
25) Cc1ccc(C(=O)/C=C/c2c(-c3ccc(Br)cc3)nc3sc(-c4ccccc4Cl)nn23)cc1
> 200 mg/L
26) Clc1ccccc1-c1nn2c(/C=N/C3CC3)c(-c3ccc(Br)cc3)nc2s1
50 mg/L

====

In this section we review reported MIC values for a set of compounds.
# Test system: Pseudomonas aeruginosa
# protocol notes: Antibacterial activity against Pseudomonas aeruginosa ATCC 27853 after 24 hrs by two-fold broth microdilution method
# Format: functional
# condition: ATCC 27853, 24 h
recorded endpoint: MIC

1. COc1ccc(-c2nn3c(/C=N/C4CC4)c(-c4ccc(Br)cc4)nc3s2)cc1
25 µg/mL
2. Clc1ccc(-c2nn3c(/C=N/C4CCCCC4)c(-c4ccc(Br)cc4)nc3s2)cc1
50 µg/mL
3. Cc1ccc(C(=O)/C=C/c2c(-c3ccc(Br)cc3)nc3sc(-c4ccc(Cl)cc4)nn23)cc1
> 200 µg/mL
4. Clc1ccccc1-c1nn2c(/C=N/C3CC3)c(-c3ccc(Br)cc3)nc2s1
50 µg/mL
5. O=C(/C=C/c1c(-c2ccc(Br)cc2)nc2sc(-c3ccc(Cl)cc3)nn12)c1ccccc1
> 200 µg/mL
6. O=C(/C=C/c1c(-c2ccc(Br)cc2)nc2sc(-c3ccccc3Cl)nn12)c1cccs1
> 200 µg/mL
7. O=C(/C=C/c1c(-c2ccc(Br)cc2)nc2sc(-c3ccc(Cl)cc3)nn12)c1cccs1
> 200 µg/mL
8. CC1(C)S[C@@H]2[C@H](NC(=O)[C@H](N)c3ccc(O)cc3)C(=O)N2[C@H]1C(=O)O
< 0.39 µg/mL
9. COc1ccc(-c2nn3c(/C=C/C(=O)c4ccccc4)c(-c4ccc(Br)cc4)nc3s2)cc1
> 200 µg/mL
